Let's look at some compounds and their measured % degradation of peptidomimetics in 24 h when incubated with human plasma.
experiment-summary: Stability in human plasma
Format: in vitro ADME
condition: 2 μM peptidomimetic, pooled human plasma, 37° C., 24 h
Kindly answer with a numeric value in %, unit omitted.

CCc1cc(OC)ccc1-c1ccc(CC(CNC(CCCc2ccccc2)C(N)=O)NC[C@H](CC(=O)O)NC(=O)[C@H](CO)NC(=O)[C@@H](NC(=O)C(C)(Cc2ccccc2F)NC(=O)[C@@H](NC(=O)CNC(=O)[C@H](CCC(N)=O)NC(=O)C(C)(C)NC(=O)[C@H](Cc2c[nH]cn2)NC(=O)OC)[C@@H](C)O)[C@@H](C)O)cc1 (single isomer, unassigned) : 00

Now let's try a different one.
Prompt line: Which % degradation of peptidomimetics in 24 h when incubated with human plasma reading was recorded for the compound CCc1cc(OC)ccc1-c1ccc(CC(NC(=O)[C@H](CC(=O)O)NC(=O)[C@H](CO)NC(=O)[C@@H](NC(=O)C(C)(Cc2ccccc2F)NC(=O)[C@@H](NC(=O)CNC(=O)C(CCC#N)NC(=O)C(C)(C)NC(=O)[C@H](Cc2c[nH]cn2)NC(C)=O)[C@@H](C)O)[C@@H](C)O)C(=O)NC(CCCc2ccccc2)C(N)=O)cc1 (single isomer, unassigned) ?
Response line: 00

---

target-entity: DPP IV (Homo sapiens, UniProt P27487)
Sequence (P27487 whole entry, species assumed): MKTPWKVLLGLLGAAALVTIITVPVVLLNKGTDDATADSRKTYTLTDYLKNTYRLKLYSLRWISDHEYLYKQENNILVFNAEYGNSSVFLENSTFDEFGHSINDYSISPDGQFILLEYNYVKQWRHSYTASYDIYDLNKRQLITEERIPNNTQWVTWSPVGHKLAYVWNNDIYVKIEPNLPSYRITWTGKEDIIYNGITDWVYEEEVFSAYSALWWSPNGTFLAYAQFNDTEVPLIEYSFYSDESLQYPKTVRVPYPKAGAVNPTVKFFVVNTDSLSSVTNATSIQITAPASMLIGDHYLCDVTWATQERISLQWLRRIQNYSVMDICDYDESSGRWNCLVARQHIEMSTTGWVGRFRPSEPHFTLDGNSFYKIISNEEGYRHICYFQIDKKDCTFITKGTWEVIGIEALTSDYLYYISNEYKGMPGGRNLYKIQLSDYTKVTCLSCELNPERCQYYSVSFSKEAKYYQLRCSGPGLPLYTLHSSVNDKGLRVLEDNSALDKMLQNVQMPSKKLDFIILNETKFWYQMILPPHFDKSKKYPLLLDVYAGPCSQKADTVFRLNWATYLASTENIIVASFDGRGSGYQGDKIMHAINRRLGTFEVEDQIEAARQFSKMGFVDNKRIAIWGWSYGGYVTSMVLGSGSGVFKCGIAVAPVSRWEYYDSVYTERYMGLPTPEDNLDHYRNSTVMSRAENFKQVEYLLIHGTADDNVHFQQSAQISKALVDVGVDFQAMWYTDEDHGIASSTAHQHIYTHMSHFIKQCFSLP
experiment-summary: Stability against DPP IV enzyme
Assay type: in vitro ADME
condition: DPP IV enzyme, pH 7.8, 2 μM peptidomimetic, 37° C., read-out: half-life (t1/2) when incubated with DPP-IV enzyme
Description: Reactions were terminated by the addition of TFA/H2O (15 mL, 10% (v/v)). […] The column was equilibrated with TFA/H20, at a flow rate of 1 mL/min.
Non-standard residues stand in square brackets, D forms with d. Residues, ends and D or L forms follow the SMILES beside them. ξ: configuration not given here. Leu(5,5,5,5',5',5'-F6) = N[C@@H](CC(C(F)(F)F)C(F)(F)F)C(=O)O; ξBip(2'-Et-4'-OMe) = CCc1cc(OC)ccc1-c1ccc(CC(N)C(=O)O)cc1; ξNva(5-(4-Cl-2-MePh)) = Cc1cc(Cl)ccc1CCCC(N)C(=O)O; ξNva(5-(3-Cl-Ph)) = NC(CCCc1cccc(Cl)c1)C(=O)O; ξαMePhe(2-F) = CC(N)(Cc1ccccc1F)C(=O)O; Aib = CC(C)(N)C(=O)O
Let's look at some compounds and their measured half-life at 2 μM.

CCc1cc(OC)ccc1-c1ccc(CC(CNC(CCCc2ccccc2F)C(N)=O)NC[C@H](CC(=O)O)NC(=O)[C@H](CO)NC(=O)[C@@H](NC(=O)C(C)(Cc2ccccc2F)NC(=O)[C@@H](NC(=O)CNC(=O)[C@H](CCC(N)=O)NC(=O)C(C)(C)NC(=O)[C@H](Cc2c[nH]cn2)NC(=O)OC)[C@H](C)O)[C@H](C)O)cc1 (single isomer, unassigned) : > 24 h
CCc1cc(OC)ccc1-c1ccc(CC(NC(=O)[C@H](CC(=O)O)NC(=O)[C@H](CO)NC(=O)[C@@H](NC(=O)C(C)(Cc2ccccc2F)NC(=O)[C@@H](NC(=O)CNC(=O)C(CCC#N)NC(=O)C(C)(C)NC(=O)[C@H](Cc2c[nH]cn2)NC(C)=O)[C@@H](C)O)[C@@H](C)O)C(=O)NC(CCCc2ccccc2)C(N)=O)cc1 (single isomer, unassigned) : > 24 h
CCc1cc(OC)ccc1-c1ccc(CC(NC(=O)[C@H](CC(=O)O)NC(=O)[C@H](CO)NC(=O)[C@@H](NC(=O)[C@H](Cc2ccccc2)NC(=O)[C@@H](NC(=O)CNC(=O)[C@H](CCC(N)=O)NC(=O)[C@H](CO)NC(=O)[C@@H](N)Cc2c[nH]cn2)[C@@H](C)O)[C@@H](C)O)C(=O)NC(CCCc2ccc(Cl)cc2C)C(N)=O)cc1 (stereo partly shown) [compound 8] (H-HSQGTFTSD[ξBip(2'-Et-4'-OMe)][ξNva(5-(4-Cl-2-MePh))]-NH2) : > 24 h
CCc1cc(OC)ccc1-c1ccc(CC(NC(=O)[C@H](CC(=O)O)NC(=O)[C@H](CO)NC(=O)[C@@H](NC(=O)[C@H](Cc2ccccc2)NC(=O)[C@@H](NC(=O)CNC(=O)[C@H](CCC(N)=O)NC(=O)C2(NC(=O)[C@@H](N)Cc3c[nH]cn3)CC2)[C@@H](C)O)[C@@H](C)O)C(=O)NC(CCCc2ccc(F)cc2C(F)(F)F)C(N)=O)cc1 (single isomer, unassigned) : 9 h
CCc1cc(OC)ccc1-c1ccc(CC(CNC(CCCc2ccccc2)C(N)=O)NC[C@H](CC(=O)O)NC(=O)[C@H](CO)NC(=O)[C@@H](NC(=O)C(C)(Cc2ccccc2F)NC(=O)[C@@H](NC(=O)CNC(=O)[C@H](CCC(N)=O)NC(=O)C(C)(C)NC(=O)[C@@H](N)Cc2c[nH]cn2)[C@H](C)O)[C@H](C)O)cc1 (single isomer, unassigned) : > 24 h

Now let's try a different one.
Prompt line: Which half-life at 2 μM reading was recorded for the compound CCc1cc(OC)ccc1-c1ccc(CC(NC(=O)[C@H](CC(=O)O)NC(=O)[C@H](CO)NC(=O)[C@@H](NC(=O)C(C)(Cc2ccccc2F)NC(=O)[C@@H](NC(=O)CNC(=O)[C@H](CC(C(F)(F)F)C(F)(F)F)NC(=O)C(C)(C)NC(=O)[C@@H](N)Cc2c[nH]cn2)[C@@H](C)O)[C@@H](C)O)C(=O)NC(CCCc2cccc(Cl)c2)C(N)=O)cc1 (stereo partly shown) [compound 236] (H-H[Aib][Leu(5,5,5,5',5',5'-F6)]GT[ξαMePhe(2-F)]TSD[ξBip(2'-Et-4'-OMe)][ξNva(5-(3-Cl-Ph))]-NH2) ?
Response line: > 24 h

The reported measurements were obtained from patent US8883963B2.
